Cited source: ChEMBL document CHEMBL4014336

assay-name: Protein binding in rat plasma
Type: ADME, cell-free
measurement-parameters: read-out: PPB (converted)
property-name: fraction unbound
The reply should be a number, written without any unit.

Query: Looking for the measured fraction unbound of O=C(CC1(c2ccccc2)C2CC3CC1CC(C2)C3O)N1CC(O)C1 (stereo in doubt; form 2) , can you help?
Response: 0.35

* * *

# IC50 measurements, system: 11-beta-hydroxysteroid dehydrogenase 1 (Mus musculus, UniProt P50172)
# Sequence (P50172 whole entry): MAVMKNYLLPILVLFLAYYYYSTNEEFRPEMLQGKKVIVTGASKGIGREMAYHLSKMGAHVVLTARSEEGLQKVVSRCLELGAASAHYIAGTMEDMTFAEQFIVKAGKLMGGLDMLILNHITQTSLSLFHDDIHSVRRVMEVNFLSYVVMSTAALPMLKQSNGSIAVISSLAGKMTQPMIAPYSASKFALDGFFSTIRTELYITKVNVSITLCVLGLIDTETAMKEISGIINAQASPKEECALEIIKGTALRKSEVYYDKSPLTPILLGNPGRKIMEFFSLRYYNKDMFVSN
Write the number in nM without appending the unit.

molecule	target-entity	reported
O=C(CC1(c2ccc(F)cc2)C2CC3CC(C2)CC1C3)N1CC[C@@H]1CO (stereo not given in full)	11-beta-hydroxysteroid dehydrogenase 1 (Mus musculus, UniProt P50172)	12
O=C(CC1(c2ccccc2)C2CC3CC1CC(C2)C3O)N1CC(O)C1 (racemic)	11-beta-hydroxysteroid dehydrogenase 1 (Mus musculus, UniProt P50172)	68
O=C(CC1(c2ccc(F)cc2)C2CC3CC1CC(C2)C3O)N1CC(O)C1 (racemic)	11-beta-hydroxysteroid dehydrogenase 1 (Mus musculus, UniProt P50172)	43
O=C(CC1(c2ccc(F)cc2)C2CC3CC1CC(C2)C3O)N1CC(O)C1 (stereo in doubt)	11-beta-hydroxysteroid dehydrogenase 1 (Mus musculus, UniProt P50172)	150

# input for lookup
Query: Would you mind telling me what IC50 value was observed for O=C(CC1(c2ccc(F)cc2)C2CC3CC(C2)CC1C3)N1CC[C@H]1CO (stereo not given in full) ?
Response: 1850
